target: L174^ECL2A D2R (Homo sapiens, UniProt P14416, L174A); assay: biochemical
Sequence (P14416 whole entry L174A): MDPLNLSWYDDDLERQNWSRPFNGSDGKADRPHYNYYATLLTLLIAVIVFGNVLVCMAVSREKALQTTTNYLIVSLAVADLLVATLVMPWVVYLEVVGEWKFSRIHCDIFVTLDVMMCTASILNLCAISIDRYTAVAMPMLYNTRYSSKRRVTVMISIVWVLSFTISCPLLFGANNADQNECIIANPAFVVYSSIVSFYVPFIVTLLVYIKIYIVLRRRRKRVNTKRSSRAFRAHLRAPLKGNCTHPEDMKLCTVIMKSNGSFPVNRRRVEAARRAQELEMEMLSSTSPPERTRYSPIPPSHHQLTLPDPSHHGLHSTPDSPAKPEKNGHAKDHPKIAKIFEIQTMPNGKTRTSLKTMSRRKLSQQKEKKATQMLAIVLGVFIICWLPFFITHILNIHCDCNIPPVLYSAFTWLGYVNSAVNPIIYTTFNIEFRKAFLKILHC
measured-endpoint: Ki (nM)
Give a bare numeral; the unit nM is implied.

Ask | Quick one: Ki of CCCN(CCC)CCc1cccc2c1CC(=O)N2 [ropinirole] ?
Reply | 2240

* * *

target: dopamine D2 receptor (D2R; D2SR; SNAP-D2SR) (Homo sapiens, UniProt P14416, F202A); experiment: biochemical
measured-endpoint: pKi
Reminder that pKi is minus the log10 of a molar concentration.

Ask | Quick one: pKi of CCCN(CCC)CCc1cccc2c1CC(=O)N2 [ropinirole] ?
Reply | 4.91

* * *

target: N186^ECL2A D2R (Homo sapiens, UniProt P14416, N186A); test: biochemical
Sequence (P14416 whole entry N186A): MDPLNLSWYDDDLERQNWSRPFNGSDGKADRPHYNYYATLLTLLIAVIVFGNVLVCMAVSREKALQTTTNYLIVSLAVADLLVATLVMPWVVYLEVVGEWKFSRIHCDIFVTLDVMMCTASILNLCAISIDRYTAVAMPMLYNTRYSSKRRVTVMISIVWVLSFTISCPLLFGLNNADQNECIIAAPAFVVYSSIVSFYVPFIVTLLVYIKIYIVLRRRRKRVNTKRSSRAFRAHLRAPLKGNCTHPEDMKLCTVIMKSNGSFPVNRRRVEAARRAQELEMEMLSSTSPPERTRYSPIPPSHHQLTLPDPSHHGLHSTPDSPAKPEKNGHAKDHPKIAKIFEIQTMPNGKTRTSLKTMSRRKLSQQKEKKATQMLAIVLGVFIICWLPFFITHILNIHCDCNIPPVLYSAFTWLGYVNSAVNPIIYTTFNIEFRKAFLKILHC
measured-endpoint: Ki (µM)
Give a bare numeral; the unit µM is implied.

Ask | Quick one: Ki of CCCN(CCC)CCc1cccc2c1CC(=O)N2 [ropinirole] ?
Reply | 9.77
